Origin of measurements: PubChem BioAssay AID602273

- measurement description: rescue of alpha-synuclein yeast toxicity, dose response, S. cerevisiae, plate reader, cherry-pick (AID 602273)
- assay context: S. cerevisiae alpha-synuclein toxicity rescue, OD600 growth, 24 h; at 26 µM (top of the series)
I'd be grateful if you could share measured growth rescue activity for these entries.
Unit % implied. Number only.

Any idea what growth rescue activity was measured for CNc1nc(Nc2ccc(C)c(Cl)c2)nc(N)c1[N+](=O)[O-] ?
-8.67

Any idea what growth rescue activity was measured for CCN(CC)CCn1c2ccccc2c2nc3ccc([N+](=O)[O-])cc3cc21 ?
0.822

Any idea what growth rescue activity was measured for O=C(Nc1ccc2c(c1)C(=O)OC2)c1ccc(Cl)cc1 ?
-1.79

Any idea what growth rescue activity was measured for C[C@H](NC(=O)[C@@H]1CSC2c3ccccc3C(=O)N21)C(=O)NCCc1ccccc1 (stereo partly specified) ?
-5.08

Any idea what growth rescue activity was measured for O=C1NC(=S)S/C1=C/c1ccc(OC(=O)c2ccco2)cc1 ?
9.87

Any idea what growth rescue activity was measured for Brc1cnc2nc(SC/C=C/c3ccccc3)[nH]c2c1 ?
0.58

Any idea what growth rescue activity was measured for Cc1ccc(C2=Nc3ccccc3NC(C)(c3ccc(C)o3)C2)o1 (stereo unspecified) ?
0.617

Any idea what growth rescue activity was measured for O=C(O)C1CCCCC1C(=O)Nc1ccc2c(c1)CCC2 (stereo unspecified) ?
-2.7

Any idea what growth rescue activity was measured for Cc1ccc(O)c(CNc2nccs2)c1 ?
12

Any idea what growth rescue activity was measured for CC(=O)c1cccc(N(CC(=O)Nc2ccc(F)cc2F)S(C)(=O)=O)c1 ?
2.96

Any idea what growth rescue activity was measured for CCCSc1nnc(Sc2nnnn2-c2ccccc2)s1 ?
4.13

---

- measurement description: rescue of alpha-synuclein yeast toxicity, dose response, S. cerevisiae, plate reader, cherry-pick (AID 602273)
- assay context: S. cerevisiae alpha-synuclein toxicity rescue, OD600 growth, 24 h; at 26 µM (top of the series)
outcome measure: growth rescue activity (%)
Unit % implied. Number only.

Any idea what growth rescue activity was measured for CCOC(=O)C1=NN(C(=O)c2ccccc2)C(O)(c2ccc(C)cc2)C1 (stereo unspecified) ?
10.9

Any idea what growth rescue activity was measured for Cc1cccc(-c2cc(C(=O)Nc3ccncc3)c3ccccc3n2)c1 ?
1.56

Any idea what growth rescue activity was measured for CCOC(=S)SCC(=O)Nc1nc(C)c(C)s1 ?
0.308

Any idea what growth rescue activity was measured for Cc1[nH]c2ccccc2c1/C=C(\C#N)C(=O)NCC1CCCO1 (stereo unspecified) ?
4.73

Any idea what growth rescue activity was measured for CC(=O)c1ccc(NC(=O)CCCN2C(=O)/C(=C/C(C)=C/c3ccccc3)SC2=S)cc1 ?
-5.11

Any idea what growth rescue activity was measured for O=C(/C=C/Sc1ccccc1)c1ccccc1 ?
3.99

Any idea what growth rescue activity was measured for Cc1cc(-c2nnc(CCC(=O)N(C)Cc3cccc4ccccc34)o2)no1 ?
8.5

Any idea what growth rescue activity was measured for CCCc1nc(SCC(=O)Nc2cc(C)on2)c2ccccc2n1 ?
4.07

Any idea what growth rescue activity was measured for Cc1nc(SCCOc2ccc(F)cc2)c2ccccc2n1 ?
-1.07

Any idea what growth rescue activity was measured for COc1cccc(-c2nnc(SCc3nc4ccccc4[nH]3)n2N)c1 ?
1.34

Any idea what growth rescue activity was measured for CCn1c(SCC(=O)c2ccc(Cl)cc2)nnc1-c1ccoc1C ?
2.33
